test system: KB (oral squamous); assay: MTT cytotoxicity assay, 48 hours (Example 14); format: cell-based, human; conditions: 100 nM
Non-standard residues stand in square brackets, D forms with d. Residues, ends and D or L forms follow the SMILES beside them. *: point of attachment. Octanoyl = CCCCCCCC(=O)*; Ac5c = NC1(C(=O)O)CCCC1; Deg = CCC(N)(CC)C(=O)O; Aib = CC(C)(N)C(=O)O; Butyryl = CCCC(=O)*
measuredMetric: Percentage cytotoxicity

Lookup result for CCC(CC)(NC(=O)[C@H](Cc1c[nH]c2ccccc12)NC(=O)[C@H](CCC(N)=O)NC(=O)[C@H](N)Cc1ccccc1)C(=O)N[C@H](C(=O)NCC(=O)N[C@@H](Cc1c[nH]cn1)C(=O)N[C@@H](CC(C)C)C(N)=O)C(C)C [SEQ ID: 9, D-Phe-Gln-Trp-Deg-Val-Gly-His-Leu-NH2] (H-[dF]QW[Deg]VGHL-NH2; N-terminus assumed) ; measured Percentage cytotoxicity: 20.8 ± 1.7%

Lookup result for CCCC(=O)N[C@H](Cc1ccccc1)C(=O)N[C@@H](CCC(N)=O)C(=O)N[C@@H](Cc1c[nH]c2ccccc12)C(=O)N[C@@H](C)C(=O)N[C@H](C(=O)NC(C)(C)C(=O)N[C@@H](Cc1c[nH]cn1)C(=O)N[C@@H](CC(C)C)C(N)=O)C(C)C [SEQ ID: 11] (Butyryl-[dF]QWAV[Aib]HL-NH2) ; measured Percentage cytotoxicity: 31.9 ± 2.1%

Lookup result for CC(C)C[C@H](NC(=O)[C@H](Cc1c[nH]cn1)NC(=O)C1(NC(=O)[C@@H](NC(=O)[C@H](C)NC(=O)[C@H](Cc2c[nH]c3ccccc23)NC(=O)[C@H](CCC(N)=O)NC(=O)[C@H](N)Cc2ccccc2)C(C)C)CCCC1)C(N)=O [SEQ ID: 10, D-Phe-Gln-Trp-Ala-Val-Ac5c-His-Leu-NH2] (H-[dF]QWAV[Ac5c]HL-NH2; N-terminus assumed) ; measured Percentage cytotoxicity: 22.0 ± 1.1%

Lookup result for CCCCCCCC(=O)N[C@H](Cc1ccccc1)C(=O)N[C@@H](CCC(N)=O)C(=O)N[C@@H](Cc1c[nH]c2ccccc12)C(=O)N[C@@H](C)C(=O)N[C@H](C(=O)NC(C)(C)C(=O)N[C@@H](Cc1c[nH]cn1)C(=O)N[C@@H](CC(C)C)C(N)=O)C(C)C [SEQ ID: 12] (Octanoyl-[dF]QWAV[Aib]HL-NH2) ; measured Percentage cytotoxicity: 11.1 ± 3.1%

###

tested on: SW620 (colon); assay: MTT cytotoxicity assay, 48 hours (Example 14); assay type: cell-based, human; conditions: SW620, 10 pM
Non-standard residues stand in square brackets, D forms with d. Residues, ends and D or L forms follow the SMILES beside them. *: point of attachment. Octanoyl = CCCCCCCC(=O)*; Ac5c = NC1(C(=O)O)CCCC1; Deg = CCC(N)(CC)C(=O)O; Aib = CC(C)(N)C(=O)O; Butyryl = CCCC(=O)*
measuredMetric: Percentage cytotoxicity

Lookup result for CC(C)C[C@H](NC(=O)[C@H](Cc1c[nH]cn1)NC(=O)C1(NC(=O)[C@@H](NC(=O)[C@H](C)NC(=O)[C@H](Cc2c[nH]c3ccccc23)NC(=O)[C@H](CCC(N)=O)NC(=O)[C@H](N)Cc2ccccc2)C(C)C)CCCC1)C(N)=O [SEQ ID: 10, D-Phe-Gln-Trp-Ala-Val-Ac5c-His-Leu-NH2] (H-[dF]QWAV[Ac5c]HL-NH2; N-terminus assumed) ; measured Percentage cytotoxicity: 16.7 ± 0.2%

Lookup result for CCCC(=O)N[C@H](Cc1ccccc1)C(=O)N[C@@H](CCC(N)=O)C(=O)N[C@@H](Cc1c[nH]c2ccccc12)C(=O)N[C@@H](C)C(=O)N[C@H](C(=O)NC(C)(C)C(=O)N[C@@H](Cc1c[nH]cn1)C(=O)N[C@@H](CC(C)C)C(N)=O)C(C)C [SEQ ID: 11] (Butyryl-[dF]QWAV[Aib]HL-NH2) ; measured Percentage cytotoxicity: 20.4 ± 0.3%

Lookup result for CCC(CC)(NC(=O)[C@H](Cc1c[nH]c2ccccc12)NC(=O)[C@H](CCC(N)=O)NC(=O)[C@H](N)Cc1ccccc1)C(=O)N[C@H](C(=O)NCC(=O)N[C@@H](Cc1c[nH]cn1)C(=O)N[C@@H](CC(C)C)C(N)=O)C(C)C [SEQ ID: 9, D-Phe-Gln-Trp-Deg-Val-Gly-His-Leu-NH2] (H-[dF]QW[Deg]VGHL-NH2; N-terminus assumed) ; measured Percentage cytotoxicity: 15.1 ± 0.3%

Lookup result for CCCCCCCC(=O)N[C@H](Cc1ccccc1)C(=O)N[C@@H](CCC(N)=O)C(=O)N[C@@H](Cc1c[nH]c2ccccc12)C(=O)N[C@@H](C)C(=O)N[C@H](C(=O)NC(C)(C)C(=O)N[C@@H](Cc1c[nH]cn1)C(=O)N[C@@H](CC(C)C)C(N)=O)C(C)C [SEQ ID: 12] (Octanoyl-[dF]QWAV[Aib]HL-NH2) ; measured Percentage cytotoxicity: 34.8 ± 0.4%

###

test system: L132 (Lung); assay: MTT cytotoxicity assay, 48 hours (Example 14); type: cell-based; settings: L132, 1 μM
Non-standard residues stand in square brackets, D forms with d. Residues, ends and D or L forms follow the SMILES beside them. *: point of attachment. Octanoyl = CCCCCCCC(=O)*; Ac5c = NC1(C(=O)O)CCCC1; Deg = CCC(N)(CC)C(=O)O; Aib = CC(C)(N)C(=O)O; Butyryl = CCCC(=O)*
measuredMetric: Percentage cytotoxicity (%)
Number only, in %; omit the unit.

Lookup result for CCCC(=O)N[C@H](Cc1ccccc1)C(=O)N[C@@H](CCC(N)=O)C(=O)N[C@@H](Cc1c[nH]c2ccccc12)C(=O)N[C@@H](C)C(=O)N[C@H](C(=O)NC(C)(C)C(=O)N[C@@H](Cc1c[nH]cn1)C(=O)N[C@@H](CC(C)C)C(N)=O)C(C)C [SEQ ID: 11] (Butyryl-[dF]QWAV[Aib]HL-NH2) ; measured Percentage cytotoxicity: 1.4

Lookup result for CCC(CC)(NC(=O)[C@H](Cc1c[nH]c2ccccc12)NC(=O)[C@H](CCC(N)=O)NC(=O)[C@H](N)Cc1ccccc1)C(=O)N[C@H](C(=O)NCC(=O)N[C@@H](Cc1c[nH]cn1)C(=O)N[C@@H](CC(C)C)C(N)=O)C(C)C [SEQ ID: 9, D-Phe-Gln-Trp-Deg-Val-Gly-His-Leu-NH2] (H-[dF]QW[Deg]VGHL-NH2; N-terminus assumed) ; measured Percentage cytotoxicity: 18.3

Lookup result for CCCCCCCC(=O)N[C@H](Cc1ccccc1)C(=O)N[C@@H](CCC(N)=O)C(=O)N[C@@H](Cc1c[nH]c2ccccc12)C(=O)N[C@@H](C)C(=O)N[C@H](C(=O)NC(C)(C)C(=O)N[C@@H](Cc1c[nH]cn1)C(=O)N[C@@H](CC(C)C)C(N)=O)C(C)C [SEQ ID: 12] (Octanoyl-[dF]QWAV[Aib]HL-NH2) ; measured Percentage cytotoxicity: 22.2

Lookup result for CC(C)C[C@H](NC(=O)[C@H](Cc1c[nH]cn1)NC(=O)C1(NC(=O)[C@@H](NC(=O)[C@H](C)NC(=O)[C@H](Cc2c[nH]c3ccccc23)NC(=O)[C@H](CCC(N)=O)NC(=O)[C@H](N)Cc2ccccc2)C(C)C)CCCC1)C(N)=O [SEQ ID: 10, D-Phe-Gln-Trp-Ala-Val-Ac5c-His-Leu-NH2] (H-[dF]QWAV[Ac5c]HL-NH2; N-terminus assumed) ; measured Percentage cytotoxicity: 22.4

###

tested on: SW620 (colon); assay: MTT cytotoxicity assay, 48 hours (Example 14); format: cell-based, human; conditions: SW620, 1 nM
Non-standard residues stand in square brackets, D forms with d. Residues, ends and D or L forms follow the SMILES beside them. *: point of attachment. Octanoyl = CCCCCCCC(=O)*; Ac5c = NC1(C(=O)O)CCCC1; Deg = CCC(N)(CC)C(=O)O; Aib = CC(C)(N)C(=O)O; Butyryl = CCCC(=O)*
measuredMetric: Percentage cytotoxicity
Form entry: enter the amount, then its unit.

Lookup result for CCCCCCCC(=O)N[C@H](Cc1ccccc1)C(=O)N[C@@H](CCC(N)=O)C(=O)N[C@@H](Cc1c[nH]c2ccccc12)C(=O)N[C@@H](C)C(=O)N[C@H](C(=O)NC(C)(C)C(=O)N[C@@H](Cc1c[nH]cn1)C(=O)N[C@@H](CC(C)C)C(N)=O)C(C)C [SEQ ID: 12] (Octanoyl-[dF]QWAV[Aib]HL-NH2) ; measured Percentage cytotoxicity: 32.2 ± 2.6%

Lookup result for CCCC(=O)N[C@H](Cc1ccccc1)C(=O)N[C@@H](CCC(N)=O)C(=O)N[C@@H](Cc1c[nH]c2ccccc12)C(=O)N[C@@H](C)C(=O)N[C@H](C(=O)NC(C)(C)C(=O)N[C@@H](Cc1c[nH]cn1)C(=O)N[C@@H](CC(C)C)C(N)=O)C(C)C [SEQ ID: 11] (Butyryl-[dF]QWAV[Aib]HL-NH2) ; measured Percentage cytotoxicity: 35.1 ± 2.2%

Lookup result for CCC(CC)(NC(=O)[C@H](Cc1c[nH]c2ccccc12)NC(=O)[C@H](CCC(N)=O)NC(=O)[C@H](N)Cc1ccccc1)C(=O)N[C@H](C(=O)NCC(=O)N[C@@H](Cc1c[nH]cn1)C(=O)N[C@@H](CC(C)C)C(N)=O)C(C)C [SEQ ID: 9, D-Phe-Gln-Trp-Deg-Val-Gly-His-Leu-NH2] (H-[dF]QW[Deg]VGHL-NH2; N-terminus assumed) ; measured Percentage cytotoxicity: 30.8 ± 0.6%

Lookup result for CC(C)C[C@H](NC(=O)[C@H](Cc1c[nH]cn1)NC(=O)C1(NC(=O)[C@@H](NC(=O)[C@H](C)NC(=O)[C@H](Cc2c[nH]c3ccccc23)NC(=O)[C@H](CCC(N)=O)NC(=O)[C@H](N)Cc2ccccc2)C(C)C)CCCC1)C(N)=O [SEQ ID: 10, D-Phe-Gln-Trp-Ala-Val-Ac5c-His-Leu-NH2] (H-[dF]QWAV[Ac5c]HL-NH2; N-terminus assumed) ; measured Percentage cytotoxicity: 22.4 ± 1.7%
